# assay: EBV-transformed lymphoblastoid cell viability decrease, dose response, EBV LMP1 NF-kB inhibitor project, CellTiter-Glo, dry powder, replicate tests (AID 624375)
# particulars: EBV-transformed LCL viability, CellTiter-Glo ATP luminescence, 48 h; at 19.5 µM (top of the series)
Results filed as inconclusive are left out.
Answer each item with its documented activity change, negative = inhibition.
Report as a plain number; the unit % is understood.

Which measured activity change, negative = inhibition value corresponds to CCc1sc(C(=O)Nc2ncccc2O)cc1C ?
-13.2

Which measured activity change, negative = inhibition value corresponds to CC1=C(C(=O)OCc2ccc3c(c2)OCO3)C(c2ccc(F)cc2)NC(=O)N1 (centres undefined) ?
-2.46

Which measured activity change, negative = inhibition value corresponds to COc1ccc(-c2csc3ncnc(NCCN4CCOCC4)c23)cc1 ?
-6.51

Which measured activity change, negative = inhibition value corresponds to C[C@@H]1CCCCO[C@H](CN(C)S(=O)(=O)c2ccccc2)[C@@H](C)CN([C@@H](C)CO)C(=O)c2cc(N(C)C)ccc2O1 ?
-2.16

Data provenance: PubChem BioAssay AID624375
